STK11 functional score values by entry
B1: library; numbered along this chain (parent)
chain: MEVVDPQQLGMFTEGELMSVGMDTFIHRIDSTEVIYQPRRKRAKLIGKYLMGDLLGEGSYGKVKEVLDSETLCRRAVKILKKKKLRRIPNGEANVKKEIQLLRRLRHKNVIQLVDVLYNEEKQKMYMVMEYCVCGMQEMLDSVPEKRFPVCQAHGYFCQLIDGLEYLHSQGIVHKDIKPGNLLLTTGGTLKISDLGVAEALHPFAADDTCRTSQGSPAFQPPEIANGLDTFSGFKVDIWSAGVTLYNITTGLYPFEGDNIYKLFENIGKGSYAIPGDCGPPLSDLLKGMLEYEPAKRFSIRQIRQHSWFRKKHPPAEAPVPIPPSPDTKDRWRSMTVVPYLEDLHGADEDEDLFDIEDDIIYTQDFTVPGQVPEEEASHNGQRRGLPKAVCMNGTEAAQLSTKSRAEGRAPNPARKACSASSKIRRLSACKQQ

Variants of: B1
Test: STK11 functional score (HeLa growth suppression), rescaled enrichment; synonymous median = 1, nonsense median = 0 (normalised score)
Settings: with HeLa; variant type: missense
Observable: STK11 functional score

Variant Code: S334D
Assay Result: 1.45

Variant Code: I248Y
Assay Result: 0.287

Variant Code: R103Q
Assay Result: 1.27

Variant Code: T32H
Assay Result: 1.68

Variant Code: K64N
Assay Result: 0.93

Variant Code: A218K
Assay Result: 1.28

Variant Code: R103I
Assay Result: 1

Variant Code: A377I
Assay Result: 1.55

Variant Code: R75W
Assay Result: 0.21

Variant Code: E396I
Assay Result: 1.57

Variant Code: A377R
Assay Result: 1.6

Variant Code: K122P
Assay Result: 1.68

Variant Code: E120H
Assay Result: 1.66

Variant Code: T363M
Assay Result: 1.59

Variant Code: L164C
Assay Result: 1.21

Variant Code: H154R
Assay Result: 0.997

Variant Code: D30T
Assay Result: 1.62

Variant Code: L17M
Assay Result: 0.968

Variant Code: P280R
Assay Result: 1.14

Variant Code: P179Y
Assay Result: 0.059

Variant Code: F366V
Assay Result: 1.42

Variant Code: A200L
Assay Result: 0.6

Variant Code: G227Q
Assay Result: 1.26

Variant Code: M18P
Assay Result: 1.69

Variant Code: M136H
Assay Result: -0.214

Variant Code: M139R
Assay Result: 0.918

Variant Code: L282Y
Assay Result: 1.07

Variant Code: L85T
Assay Result: -0.0975

Variant Code: C73S
Assay Result: 1.38

Variant Code: F148V
Assay Result: 0.674

Variant Code: H202T
Assay Result: 0.925

Variant Code: V243S
Assay Result: 0.561

Variant Code: D141E
Assay Result: 0.883

Variant Code: G47V
Assay Result: 0.431

Variant Code: V3P
Assay Result: 1.69

Variant Code: T336I
Assay Result: 1.35

Variant Code: E57T
Assay Result: 1.69

Variant Code: G61W
Assay Result: 0.248
